Molecular target: Fuc(a1-3)[Gal3S(b1-4)]GlcNAc6S
Test: glycan array binding signal (z-score within array); higher = stronger binding
Conditions: glycan notation: IUPAC condensed, linker removed
The entries come from a sample that favours the strongest signals as a whole.
measure_name: glycan array binding signal (z-score)

Entry L-Selectin (Mus musculus), P18337 (protein) MVFPWRCEGTYWGSRNILKLWVWTLLCCDFLIHHGTHCWTYHYSEKPMNWENARKFCKQNYTDLVAIQNKREIEYLENTLPKSPYYYWIGIRKIGKMWTWVGTNKTLTKEAENWGAGEPNNKKSKEDCVEIYIKRERDSGKWNDDACHKRKAALCYTASCQPGSCNGRGECVETINNHTCICDAGYYGPQCQYVVQCEPLEAPELGTMDCIHPLGNFSFQSKCAFNCSEGRELLGTAETQCGASGNWSSPEPICQVVQCEPLEAPELGTMDCIHPLGNFSFQSKCAFNCSEGRELLGTAETQCGASGNWSSPEPICQETNRSFSKIKEGDYNPLFIPVAVMVTAFSGLAFLIWLARRLKKGKKSQERMDDPY has what glycan array binding signal (z-score)?
4.9

Input L-Selectin (Homo sapiens), P14151 (protein) MIFPWKCQSTQRDLWNIFKLWGWTMLCCDFLAHHGTDCWTYHYSEKPMNWQRARRFCRDNYTDLVAIQNKAEIEYLEKTLPFSRSYYWIGIRKIGGIWTWVGTNKSLTEEAENWGDGEPNNKKNKEDCVEIYIKRNKDAGKWNDDACHKLKAALCYTASCQPWSCSGHGECVEIINNYTCNCDVGYYGPQCQFVIQCEPLEAPELGTMDCTHPLGNFSFSSQCAFSCSEGTNLTGIEETTCGPFGNWSSPEPTCQVIQCEPLSAPDLGIMNCSHPLASFSFTSACTFICSEGTELIGKKKTICESSGIWSNPSPICQKLDKSFSMIKEGDYNPLFIPVAVMVTAFSGLAFIIWLARRLKKGKKSKRSMNDPY
8.15

Input EULS2 M4 (Oryza sativa) (protein) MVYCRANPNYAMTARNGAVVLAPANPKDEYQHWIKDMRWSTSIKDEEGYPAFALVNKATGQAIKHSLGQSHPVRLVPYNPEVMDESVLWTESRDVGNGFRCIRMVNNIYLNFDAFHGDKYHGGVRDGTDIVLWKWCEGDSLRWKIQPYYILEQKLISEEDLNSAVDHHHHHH
-0.356

Input DBA (Dolichos biflorus) (protein) ANIQSFSFKNFNSPSFILQGDATVSSGKLQLTKVKENGFPLRFPSGRAFYSSPIQIYDKFTGAVASWATSFTVKISAPSKASFADGIAFALVPVGSEPRRNGGYLGVFDSDVYNNSAQTVAVEFDTLSNSGWDPSMKHIGIDVNSIKSIATVSWDLANGENAEILITYNAATSLLVVSLVHPSRRTSYILSERVDITNELPEYVGVGFSATTGLSEGYIETHDVLSWSFASRLPDDSTAEPLDLARYLVRNVL
-0.015

Input Mincle (Bos taurus) (protein) MNSSTSPASQTERRCFSFQLFSWAIAGTSILLLSACFITRCVVTYSIFQLCDEKKFQPPGDSMELSCYNDGSGSVKNCCPLKWFHFQSSCYLFSPDTMSWRASLKNCSSMGAHLVVINTQEEQEFLYYTKPRKKEFYIGLTDQVTEGQWQWVDGTPFTKSLSFWDAGEPNNLVIVEDCATIRDSSNPRQNWNDVPCFFNMFRVCEMPERKI
-0.116

Attribution: the supplement of paper PMC8728848
